experimental_details: in vivo
experimental_parameters: rat, plasma, po
property_name: Tmax (min)
Quick reminder: number only, in min, skip the unit.

compound="COCc1ncc(COC(=O)NC(C(=O)N[C@@H](Cc2ccccc2)C[C@H](O)[C@H](Cc2ccccc2)NC(=O)OCc2cccnc2)C(C)C)s1 (stereo not given in full)" property_name=Tmax reported=6
compound="CC(C)c1csc(COC(=O)NC(C(=O)N[C@@H](Cc2ccccc2)C[C@H](O)[C@H](Cc2ccccc2)NC(=O)OCc2cncs2)C(C)C)n1 (stereo not given in full)" property_name=Tmax reported=55.2
compound="COc1ccc(CN(C)C(=O)NC(C(=O)N[C@@H](Cc2ccccc2)C[C@H](O)[C@H](Cc2ccccc2)NC(=O)OCc2cccnc2)C(C)C)cn1 (stereo not given in full)" property_name=Tmax reported=6
compound="Cc1ncc(COC(=O)N[C@@H](Cc2ccccc2)C[C@H](O)[C@H](Cc2ccccc2)NC(=O)C(NC(=O)N(C)Cc2csc(C(C)C)n2)C(C)C)s1 (stereo not given in full)" property_name=Tmax reported=42

// returns reported Tmax for input Cc1nc(CN(C)C(=O)NC(C(=O)N[C@@H](Cc2ccccc2)[C@@H](O)C[C@H](Cc2ccccc2)NC(=O)OCc2cccnc2)C(C)C)cs1 (stereo not given in full)
15

----------
experimental_details: in vivo
experimental_parameters: rat, plasma, po
Outcome: t for Tmax of at least 20 min; f for anything lower.

The examples below pair each entry with its known result.
compound="CC(C)C(NC(=O)OCc1csc(N2CCOCC2)n1)C(=O)N[C@@H](Cc1ccccc1)[C@@H](O)C[C@H](Cc1ccccc1)NC(=O)OCc1cccnc1 (some centres not stated)" label=f
compound="Cc1cnc(COC(=O)NC(C(=O)N[C@@H](Cc2ccccc2)C[C@H](O)[C@H](Cc2ccccc2)NC(=O)OCc2cccnc2)C(C)C)cn1 (some centres not stated)" label=f
compound="CC(C)C(NC(=O)OCc1ccccn1)C(=O)N[C@@H](Cc1ccccc1)[C@@H](O)C[C@H](Cc1ccccc1)NC(=O)OCc1cccnc1 (some centres not stated)" label=f
compound="CCN(Cc1csc(C(C)C)n1)C(=O)NC(C(=O)N[C@@H](Cc1ccccc1)C[C@H](O)[C@H](Cc1ccccc1)NC(=O)OCc1cncs1)C(C)C (some centres not stated)" label=t
compound="COc1ccc(COC(=O)NC(C(=O)N[C@@H](Cc2ccccc2)C[C@H](O)[C@H](Cc2ccccc2)NC(=O)OCc2cccnc2)C(C)C)cn1 (some centres not stated)" label=f

Tmax >= 20 min for Cc1ncsc1CCOC(=O)NC(C(=O)N[C@@H](Cc1ccccc1)[C@@H](O)C[C@H](Cc1ccccc1)NC(=O)OCc1cccnc1)C(C)C (some centres not stated) ?
t

Is Tmax at least 20 min? Consider CCc1nc(CN(C)C(=O)NC(C(=O)N[C@@H](Cc2ccccc2)[C@@H](O)C[C@H](Cc2ccccc2)NC(=O)OCc2cncs2)C(C)C)cs1 (some centres not stated)
t

Exam item: decide whether the reported Tmax for CC(C)C(NC(=O)OCc1ccccn1)C(=O)N[C@@H](Cc1ccccc1)[C@@H](O)C[C@H](Cc1ccccc1)NC(=O)OCc1cncs1 (some centres not stated) is at least 20 min.
f

Could you tell me if the measured Tmax of CC(C)C(NC(=O)N(C)Cc1csc(C2CC2)n1)C(=O)N[C@@H](Cc1ccccc1)C[C@H](O)[C@H](Cc1ccccc1)NC(=O)OCc1cncs1 (some centres not stated) reaches 20 min or more?
t

Kindly determine if Tmax recorded for Cc1cncc(COC(=O)NC(C(=O)N[C@@H](Cc2ccccc2)[C@@H](O)C[C@H](Cc2ccccc2)NC(=O)OCc2cccnc2)C(C)C)c1 (some centres not stated) is above or exactly 20 min.
f

Can Cc1cccc(COC(=O)NC(C(=O)N[C@@H](Cc2ccccc2)C[C@H](O)[C@H](Cc2ccccc2)NC(=O)OCc2cccnc2)C(C)C)n1 (some centres not stated) be said to have Tmax at or above 20 min?
f

Determine whether this compound has Tmax no lower than 20 min: COCc1nc(CN(C)C(=O)NC(C(=O)N[C@@H](Cc2ccccc2)C[C@H](O)[C@H](Cc2ccccc2)NC(=O)OCc2cccnc2)C(C)C)cs1 (some centres not stated)
f

Could you tell me if the measured Tmax of COc1ccc(CN(C)C(=O)NC(C(=O)N[C@@H](Cc2ccccc2)C[C@H](O)[C@H](Cc2ccccc2)NC(=O)OCc2cccnc2)C(C)C)nc1 (some centres not stated) reaches 20 min or more?
f

Is Tmax for CC(C)C(NC(=O)N(C)Cc1csc(C2CCC2)n1)C(=O)N[C@@H](Cc1ccccc1)C[C@H](O)[C@H](Cc1ccccc1)NC(=O)OCc1cncs1 (some centres not stated) at or above 20 min?
t

Test whether the compound CC(C)c1nc(CN(C)C(=O)NC(C(=O)N[C@@H](Cc2ccccc2)C[C@H](O)[C@H](Cc2ccccc2)NC(=O)OCc2cnco2)C(C)C)co1 (some centres not stated) records Tmax of 20 min or higher.
f

Does the reported Tmax for COCc1nc(CN(C)C(=O)NC(C(=O)N[C@@H](Cc2ccccc2)[C@@H](O)C[C@H](Cc2ccccc2)NC(=O)OCc2cccnc2)C(C)C)cs1 (some centres not stated) fall at or above the 20 min mark?
t

I'd appreciate it if you could say whether CC(C)C(NC(=O)N(C)Cc1ccccn1)C(=O)N[C@@H](Cc1ccccc1)[C@@H](O)C[C@H](Cc1ccccc1)NC(=O)OCc1ccoc1 (some centres not stated) has Tmax at least equal to 20 min.
t
